// reported melting point per item
endpoint: melting point

* COc1cc([C@H]2CC[C@H](c3cc(OC)c(OC)c(OC)c3)C2=O)cc(OC)c1OC (relative stereo) | 140 to 142 °C
* Cc1cn(N)c2ccccc12 | 60 to 63 °C
* Cc1ccc(C)c(S(=O)(=O)n2c(CCCC(=O)O)cc3nc(Cl)ccc32)c1 | 106 to 117 °C
* NC(=S)C=C(N)CCOCc1ccccc1 | 93 to 94 °C
* O=c1oc2cc(O)c(O)cc2c(O)c1C1=CCOc2oc3ccccc3c(=O)c21 | 258 to 260 °C
* CS(=O)(=O)Nc1nccc(Oc2ccc3c(C(=O)Nc4ccc(F)c(C(F)(F)F)c4)cccc3c2)n1 | 246 °C
* CCOC(=O)c1ccc(N(C(C)=O)C(=O)c2ccc(C(=O)C(C)(C)C)cc2)cc1 | 91 to 94 °C
* Cc1cccc(Cl)c1NC(=O)Nc1cc(N[C@H]2CC[C@H](O)CC2)ncn1 | 149 to 152 °C
* CC(=O)Nc1ccc(-c2cc(C(C)(C)C)c(O)c(C(C)(C)C)c2)cc1 | 173 to 174 °C
* Cn1ncc(C(=O)N2CCC2)c1C(=O)Nc1ccn2nc(-c3cccc(F)n3)nc2c1 | 264 °C
* Nc1cc(-n2cc(C(=O)O)c(=O)c3cc(F)c(N4CC(N)C4)nc32)c(F)cc1F | 168 to 170 °C
* COCC(Oc1ccc(-n2c(C)nc3cc(C(F)(F)F)ccc32)cc1)C(=O)O (configuration not stated) | 111 to 112 °C
* COCCC(=O)OC1(C(=O)CO)CCC2C3CCC4=CC(=O)CCC4(C)C3C(O)CC21C (configuration not stated) | 172 °C
* O=c1ccc2cnc(Nc3ccccn3)nc2n1C1CCCC1 | > 250 °C
* Cc1oc(-c2ccc(F)cc2)cc1CO | 80 to 82 °C
* CCOC(=O)c1nsc(-c2ccc(C)cc2)n1 | 65 to 66.5 °C
* O=C(Oc1ccccc1)C(=O)Oc1ccc2c(c1)C(c1ccccc1)C(=O)O2 (configuration not stated) | 134 °C
* CC#CCOc1ccc(S(=O)(=O)N(C)C(CCCSc2ccc(Cl)cc2)C(=O)OC)cc1 (configuration not stated) | 88 to 89 °C
* COC(=O)c1nc(Cl)cc(N)c1OC | 78 to 79 °C
* Cc1ccc(C)n1-c1cc(F)c(C2(O)CCSCC2)c(F)c1 | 125 to 126 °C
* COC(Cc1ccc(OCCc2nc(C(C)(C)C)oc2C)c2ccsc12)C(=O)O (configuration not stated) | 163 to 165 °C
* CCCCCCCCCCCCCCCCCC(=O)OC1CCN(O)CC1 | 75 to 80 °C
* COCCOC1C(O)C(CO)OC1n1cnc2c(N)nc(N)nc21 (configuration not stated) | 152 to 154 °C
* CC1C[C@@H]2NC[C@@H](NC(=O)OC(C)(C)C)[C@@H]2O1 (relative stereo) | 69 to 72 °C
* Fc1ccc(NC(=S)Nc2nc3ccc(OC(F)(F)F)cc3s2)cc1 | 207 °C
* CNCC1Cc2cc(F)cc(-c3cccc(OC)c3OC)c2O1 (configuration not stated) | 85 to 89 °C
* CC(C)Cc1cc2c(s1)C(C(=O)O)CC2=O (configuration not stated) | 80 °C
* O=C(O)c1ccc(SCC(=O)C23CC4CC(CC(C4)C2)C3)nc1 | 174 to 176 °C
* CCOP(=O)(Cc1ccc(Oc2sc(C(N)=O)c3c2-c2c(cnn2CC)CC3)cc1)OCC | 152 to 153 °C
* COc1cc(CS(=O)c2ccc(O)cc2)cc(OC)c1OC (configuration not stated) | 153 °C
* CCCC1=NN(c2cccnc2)C(=O)C1=CNc1ccccc1CC | 144 °C
* CC(=O)CS(=O)CCc1ccc2c(c1)OCO2 (configuration not stated) | 82 to 84.5 °C
* CC(C)(C)CCN(CCC(C)(C)C)[C@@H](CC(=O)O)C(=O)O | 197 to 198 °C
* COC1=C(OC)C(=O)C2=C(CCC(CCO)CC2)C1=O | 63 to 64 °C
* COC(=O)c1nc(C)[nH]c1C(=O)OC | 138 to 140 °C
* COc1ccc(C(=O)C(=O)c2ccc(OC(F)F)cc2)cc1C#N | 150 to 155 °C
* COC1(c2ccc(F)cc2)CCC(=O)CC1 | 57 to 59 °C
* Cc1cc2oc(=O)c3c(c2cc1C)CCN(CC(C)N(C)C)C3 (configuration not stated) | 105 to 107 °C
* CNc1nccn2c(Br)cnc12 | 139 °C
* C=Cc1ccc(CSCCNC(=O)CCCC(=O)O)cc1 | 118 to 119 °C
* Cc1ccc2c(c1)oc1c(C(N)=O)nn(-c3ccc(Cl)cc3Cl)c12 | 185 to 186 °C
* CC(=O)c1c(-c2ccc(F)cc2)[nH]c(-c2ccncc2)c1C | 202 to 203 °C

###

// reported melting point per item
endpoint: melting point

* CCCCCCCCCCCCSC1C=NNC1=O (stereo unspecified) | 88.5 to 90 °C
* CC(Oc1ccccc1-c1ccc(Cl)c(C(=O)NCC23CC4CC(CC(C4)C2)C3)c1)C(=O)O (stereo unspecified) | 107 to 110 °C
* CC(=O)c1cccc(N=P(c2ccccc2)(c2ccccc2)c2ccccc2)c1 | 135 to 136 °C
* COC(=O)Cc1ccc2c(c1)C(=O)c1sccc1CO2 | 80 to 81 °C
* COc1cc2nc(Cl)nc(Cl)c2c(OC)c1OC | 213 to 215 °C
* Cc1[nH]c(=S)[nH]c1C(N)=O | < 300 °C
* CC(C)Cc1cc([N+](=O)[O-])c2c(c1O)C(=O)c1c(O)c(CC(C)C)cc([N+](=O)[O-])c1C2=O | 198 to 200 °C
* CCOC(=O)C1=C(C)NC(c2csc(NC(C)=O)n2)=NC1c1ccc(F)cc1Cl (stereo unspecified) | 220 to 223 °C
* CCC1(C)C(=O)N(C(C)C)CC(C)(C)N1OC(C)(C)C#N (stereo unspecified) | 106 to 108 °C
* COC(=O)c1ccc2cccc(C#N)c2c1 | 178 to 182 °C
* COc1ncc(-c2cc(N3CCOCC3)nc(-n3c(C(F)F)nc4c(OC)cccc43)n2)cn1 | 238 to 241 °C
* C(=Cc1ccccc1)C=NC1CCOc2ccccc21 (stereo unspecified) | 106 to 107 °C
* CN1CCC(Oc2c(F)c(F)c(F)c(F)c2F)(c2ccc(C(F)(F)F)cc2)CC1 | 45 to 48 °C
* CS(=O)(=O)c1ccc(-c2cnn(CC(F)(F)F)c(=O)c2OCc2ccco2)cc1 | 113 to 115 °C
* COc1ccccc1C(c1ccccc1)c1cccc(-c2ccccc2)c1O (stereo unspecified) | 120 °C
* COC(=O)C1=C(C)Nc2nccn2C1C1CCCCC1 (stereo unspecified) | 178 °C
* Cc1cc2c(cc1C)OCCC(C(=O)O)=C2 | 266 to 267 °C
* C[C@@H]1Cc2cc(Cl)ccc2O[C@H]1c1ccc(Cl)cc1 (relative stereo) | 135 to 137 °C
* COc1ccc(NC(=O)/C=C/c2ccc([N+](=O)[O-])c(F)c2)cc1[N+](=O)[O-] | 263 to 265 °C
* O=C(NCCO)c1cnc(NCCO)cc1Nc1ccc(I)cc1F | > 250 °C
* NC(=O)N(O)Cc1sccc1Sc1ccc(Cl)cc1 | 111 to 113 °C

###

// reported melting point per item
endpoint: melting point

- Cc1oc(-c2ccccc2)nc1CCOc1ccc(C[C@H](NC(=O)C=Cc2ccco2)C(=O)O)cc1: 199 to 201 °C
- O=C(O)CCCNc1ccc2c(NC(=O)CC3CCCCC3)c(Cl)ccc2n1: 248 to 250 °C
- CC(C)NC(=O)n1cc(Cl)c(-c2cc(Cl)cc(Cl)c2)n1: 127 °C
- CCCCC1=Nc2ccccc2SN1Cc1ccc(-c2ccccc2C(=O)O)cc1: 125 to 130 °C
- Cc1cc(C)c2nc(CO)[nH]c2n1: 244 to 246 °C

###

endpoint: melting point

• CC(C)(C)OC(=O)N1CCC(c2ccc(N3C[C@H](COS(C)(=O)=O)OC3=O)cc2F)CC1 = 163 to 165 °C
• O=C(Nc1ccccc1)C1Cc2cc(Br)cc3[nH]c(=O)c(=O)n1c23 (configuration not stated) = > 300 °C
• O=C(O)[C@H](CO)NC(=O)[C@@H]1CS[C@H](c2ccccc2O)N1C(=O)CCS = 140 to 145 °C
• CC1(C)CC(C)(C#N)c2cn(-c3ccc(F)cc3)c(C=O)c21 (configuration not stated) = 165 to 168 °C
• NC(=O)NNC1=NC=Cc2ccccc2C1 = 188 to 189 °C
• O=C(NCCOc1ncc(C(F)(F)F)cc1Cl)c1cc([N+](=O)[O-])ccc1Cl = 126 to 127 °C
• COc1ccc(C2=NN(c3cccc(C(=O)O)c3)C(=O)[C@H]3CC=CC[C@@H]23)cc1OC (relative stereo) = 185 to 186 °C
• COC(=O)c1sc2cccc(Cl)c2c1Br = 120 to 122 °C
• COC(=O)CCc1cc2ccccc2n1S(=O)(=O)c1ccccc1 = 95 to 99 °C
• C=Cn1ccnc1C=O = 48 to 51 °C
• O=c1n(-c2cc(O)c(Cl)cc2F)nc2ccc(Cl)cn12 = > 210 °C
• COc1ccc(C(O)c2cc(O)ccc2OC)cc1 (configuration not stated) = 62 to 68 °C
• CN(C)C(=O)c1ccc(C(=O)Nc2cccc3cc(Br)cnc23)cc1 = 196 to 198 °C
• CC(=O)Nc1ccc2c(c1)CCC1CC(=O)NN=C21 (configuration not stated) = 284 °C
• COc1ccc(C(C)(C)C)cc1NC(=O)Nc1ccc(C)cc1N = 165 to 166 °C
• CCOc1cc2ncc3c(N)nc(-c4ccc(Br)cc4)cc3c2cc1OCC = 230 to 235 °C
• O=C(NCCN1CCOCC1)N1CCN2C(=O)OC(c3ccccc3)(c3ccccc3)C2C1 (configuration not stated) = 174 to 175 °C
• CN(CCO)c1nc(-c2ccc(Cl)c(C(=O)NCC34CC5CC(CC(C5)C3)C4)c2)ccc1C(=O)O = 121 to 124 °C
• CC(C)(C)OC(=O)N1CCC2(CC1)CC(c1ccc(C(C)(C)C)cc1)=NO2 = 172 to 173 °C
• Nc1nc2c(s1)CCN(CC=Cc1ccc(OCc3ccccc3)cc1)CC2 = 135 to 140 °C
• CCCCCCCCCCCCCCCCCC(=O)NC(C)Cc1cccc(C(F)(F)F)c1 (configuration not stated) = 74 to 76 °C
• O=C(C=Cc1ccc(O)cc1)C=Cc1ccc(O)cc1 = 236 °C
• CC(=O)Nc1ccc2oc(-c3ccc(OCc4ccccc4)cc3)c(O)c(=O)c2c1 = 255 to 258 °C
• COC(=O)CSC(c1ccccc1)(c1ccccc1)c1ccccc1 = 111 to 115 °C
• COc1nc2ccccc2nc1NC(=O)N1CCN(c2cc(C)cc(C)c2)CC1 = 155 to 157 °C
• CS(=O)(=O)Nc1ccc(C(=O)Nc2cn3cc(Cl)ccc3n2)cc1 = 293 to 295 °C
• Cc1cccc(C(=O)c2[nH]c3ccc(Cl)cc3c2CC(=O)O)c1 = 173 to 174 °C
• CCSc1nc(O)ns1 = 129 °C
• COc1cc(C=O)ccc1OCCCC(=O)O = 143 to 148 °C
• CC(C)c1nn2ccccc2c1C(=O)C1CC1 = 72 °C
• COc1ccc(-c2oc(CCCCCc3nnn[nH]3)nc2-c2ccc(Cl)cc2)cc1 = 160 °C
• CC(OC(=O)NC1(C(=O)O)CC1)OC(=O)C(C)C (configuration not stated) = 127 to 130 °C
• CCN(CC)C(=O)Nc1c(C(=O)c2ccccc2)[nH]c2cc(Cl)ccc12 = 196 to 198 °C
• COc1ccc(CCCCNC(=O)C(F)(F)F)cc1S(N)(=O)=O = 145 to 147 °C
• COc1nc(C(F)(F)F)cc(=O)n1-c1cc(OCCON=C(C)C)c(Cl)cc1F = 136 to 138 °C
• Cc1ccc(C(=O)c2cnn3c(-c4cccnc4)ccnc23)cc1 = 203 to 204 °C
• Cc1oc2cc(O)ccc2c(=O)c1C(=O)O = 286 to 287 °C
• CCOC(=O)c1cc2ccc(OC)cc2n1CCNC(C)=O = 159 to 160 °C
• Cc1nc(NCc2ccccc2)[nH]c(=O)c1CCO = 187 °C
• O=C(NC1CCCCC1)Oc1ccc(Oc2ccccc2)cc1 = 166 to 168 °C
• CCC(=O)Nc1ncc(Sc2ccc(N)cc2)s1 = 185 to 187 °C
• CCCCOc1ccc2[nH]c3c([N+](=O)[O-])ccc(Cl)c3c(=O)c2c1 = 154 to 155 °C
